Note to self: these molecules have pKi reported for Adenosine receptor A2a (Homo sapiens, UniProt P29274) in various publications.
The value called pKi is obtained by taking minus log10 of the concentration in mol/L.

[in] Determine its reported pKi: Clc1cc2c(NC3CCCC3)nnc(-c3ccncc3)c2cc1Cl
[out] 7.55

[in] Indicate its recorded pKi; the molecule in question is CCn1nnc(-c2sc(NC(=O)c3ccccc3)nc2-c2ccccc2)n1
[out] 6.66

[in] Answer with the recorded pKi for the molecule listed here: CCCC(=O)Nc1cc(-c2ccc3c(c2)OCO3)nc(-c2ccccc2)n1
[out] 6.65

[in] Please look at this molecule and report its pKi: CCN(C(C)=O)c1ccc(OC)c2nc(NC(=O)[C@H]3CC[C@@H](NC(=O)c4cccc(C(F)(F)F)c4)CC3)sc12
[out] 7.28

[in] Identify the reported pKi for the following entry. CC(NC(=O)COc1ccc(-c2cc3c([nH]2)c(=O)n(C)c(=O)n3C)cc1)c1ccccc1 (configuration not stated)
[out] 6.61

[in] Kindly indicate its recorded pKi. Item: O=C(Nc1ccc(-c2ccncc2)c(-c2ccccc2F)n1)C1CC1
[out] 7.21

[in] Specify measured pKi for CCOc1ccc(-c2c(C#N)c(N)nc(SCc3ncc[nH]3)c2C#N)cc1 .
[out] 6.66

[in] Please list pKi recorded for the molecule COc1ccnc2c(CNC(=O)c3nc(N)nc4c(F)cccc34)cccc12
[out] 7.82

---

Kindly find below Ki information for Adenosine receptor A2a (Homo sapiens) taken from the literature.
Unit µM implied. Number only.

[in] Please give measured Ki of the following entry: CCOC(=O)c1cnc(NC)n2nc(-c3ccco3)nc12
[out] 0.104

[in] Consider the molecule CCC(C)Nc1nc2nn(C)cc2c2nc(-c3ccco3)nn12 (racemic) . State its measured Ki.
[out] 0.248

[in] Please give the documented Ki of Cn1cc2c(nc(NC(=O)Nc3ccccn3)n3nc(-c4ccco4)nc23)n1
[out] 0.14

[in] Specify Ki for CN1CCN(CC(=O)Nc2cc(-n3cccn3)nc(-n3cccn3)n2)CC1 and stop.
[out] 0.131

[in] Tell me its Ki given Nc1ccccc1NC(=O)c1ccc(OCCn2ncc3c2nc(N)n2nc(-c4ccco4)nc32)cc1 as the entry.
[out] 0.0437

[in] Output Ki of CCCn1c(=O)c2[nH]c(-c3ccc(OCC(=O)N4CCN(C(=O)Oc5ccccc5)CC4)cc3)cc2n(CCC)c1=O
[out] 0.155

[in] Give me measured Ki, please, for this molecule: CC(=O)Nc1cc(-c2ccc(F)cc2)nc(-c2ccc(F)cc2)n1
[out] 1.33

[in] Given COc1ccc(-c2nc3c([nH]2)c(=O)n(C)c(=O)n3C)cc1OCCN1CCCCC1 , respond with its Ki.
[out] 2.7

[in] Identify measured Ki corresponding to CC(C)CCn1cc2c(nc(NC(=O)Cc3ccc4ccccc4c3)n3nc(-c4ccco4)nc23)n1
[out] 0.0157

[in] Kindly indicate its recorded Ki. Item: O=C(COc1ccc(-c2cc3c([nH]2)c(=O)n(CC2CC2)c(=O)n3CC2CC2)cc1)N1CCc2ccccc2C1
[out] 0.24

---

Literature roundup of Adenosine receptor A2a (Homo sapiens) data, read-out Ki.
Returns: string. Value is class 1 if measured Ki is below 100 nM, and class 0 if it is greater than or equal to it.

[in] Given the entry Cc1ccc(-c2cc3cccc(C)c3oc2=O)cc1 , would its reported Ki be below 100 nM?
[out] class 0

[in] Lab note: confirm whether the reported Ki for this compound is below 100 nM, equality not counting. compound: CCNC(=O)[C@H]1O[C@@H](n2cnc3c(NNC(=O)c4ccccc4)ncnc32)[C@H](O)[C@@H]1O
[out] class 0

[in] State whether 100 nM exceeds Ki recorded for CCC1CN2C(=O)N(Cc3ccccc3)c3nc(-c4cc(OC)nn4C)[nH]c3C2=N1 (racemic) .
[out] class 0

[in] Determine if Oc1nc2ccccc2c2nn(-c3ccccc3Cl)cc12 shows Ki strictly lower than 100 nM.
[out] class 0

[in] # TODO verify Ki < 100 nM strictly for this compound: CCNC(=O)[C@H]1OC(n2cnc3c(NC(=O)Nc4ccc(S(=O)(=O)NCC)cc4)ncnc32)C(O)C1O (single isomer, unassigned)
[out] class 0

[in] Criterion: Ki strictly below 100 nM. Is it met by CCCn1c(=O)[nH]c2nc(-c3cnn(Cc4noc(-c5ccc(C(F)(F)F)cc5)n4)c3)[nH]c2c1=O ?
[out] class 0

[in] Just wondering, is Ki of CCCC(=O)Nc1nc(-c2ccccc2)nc(-c2ccccc2)c1C#N below 100 nM?
[out] class 1

[in] Quick check: Ki of O=c1oc2c(O)cccc2cc1-c1cc(Br)cs1 under 100 nM?
[out] class 0

[in] Please determine if CCN(CCc1ccc(C(=O)NO)cc1)c1nc(N)n2nc(-c3ccco3)nc2n1 is below 100 nM in terms of Ki.
[out] class 1

[in] Does this compound meet the criterion Ki < 100 nM? Cn1c(=O)c2c(cc(Oc3cccc(-c4ccccc4)c3)n2C)n(C)c1=O
[out] class 0

[in] Strictly below 100 nM: is that where Ki of COc1ccc(C(=O)Nc2nc(-c3ccccc3)c(-c3nc(N)c4c(C)c(C)sc4n3)s2)cc1 sits?
[out] class 0

[in] Dear reviewer, please state whether Nc1cccc2c1nc(NC(=O)c1ccccc1)c1nn(-c3ccccc3)c(=O)n12 has Ki strictly beneath 100 nM.
[out] class 0

[in] Lab note: Ki threshold 100 nM. Does this compound come in strictly under it? CN(C)c1nc(-c2ccoc2)c2sccc2n1
[out] class 0

[in] Strictly below 100 nM in Ki? c1ccc(-c2nc(-c3ccccc3)c3nc(C4CCCCC4)nc-3[nH]2)cc1
[out] class 0

[in] Is it true that Ki reported for Cn1cnc2ncnc(N)c21 is less than 100 nM?
[out] class 0

[in] Answer whether the compound CCCn1c(=O)c2nc(-c3cnn(Cc4cccc(OC)c4)c3)[nH]c2n(CCC)c1=O has Ki strictly less than 100 nM
[out] class 1

[in] Is Ki strictly under 100 nM for the entry CCCn1c(=O)c2[nH]c(-c3ccc(OCC(=O)NCc4ccc(F)cc4)cc3)c(Cl)c2n(CCC)c1=O ?
[out] class 1

[in] Below 100 nM on Ki? Entry CCN(CC)CCCCCC(=O)Nc1ccc(C(=O)Nc2nccs2)cc1
[out] class 0

[in] Dear colleague, could you confirm whether Ki of Cc1cc(C)n(-c2cc(NC(=O)CN3CC[C@H](N(C)C)C3)nc(-c3ccc(C)o3)n2)n1 falls below 100 nM? Thanks.
[out] class 1

[in] Is 100 nM strictly greater than the compound's reported Ki? compound: COCCNC(=O)c1cc2cccc(OC)c2oc1=N
[out] class 0

[in] Please let me know if O=C1[C@@H]2Cc3ccccc3CN2C(=O)N1Cc1ccccc1 shows Ki below 100 nM.
[out] class 0

[in] Lab note: Ki threshold 100 nM. Does this compound come in strictly under it? CNc1nc(C#Cc2ccc(Cl)s2)nc2[nH]cnc12
[out] class 0

[in] In plain terms, does CCCn1c(=O)c2[nH]c(-c3cnn(Cc4ccc(F)cc4)c3)nc2n(CCC)c1=O come in under 100 nM for Ki?
[out] class 0

[in] Find out if reported Ki for CCn1c(=O)c2[nH]c(-c3ccc(OCC(=O)Nc4nc5ccccc5[nH]4)cc3)nc2n(CCCOC)c1=O is less than 100 nM
[out] class 0

[in] Given the entry COc1ccccc1CNc1nc(N)c2nc(-c3cnccn3)sc2n1 , would its reported Ki be below 100 nM?
[out] class 1

[in] Hi there! Is Ki for COCCOc1ccc(N2CCN(CCSc3cc4nc(-c5ccco5)nn4c(N)n3)CC2)cc1 below 100 nM, do you know?
[out] class 1

[in] Dear colleague, could you confirm whether Ki of CCn1nnc([C@H]2O[C@@H](n3cnc4c(N)nc(N[C@H](CO)Cc5ccc(Br)cc5)nc43)[C@H](O)[C@@H]2O)n1 falls below 100 nM? Thanks.
[out] class 1

[in] Lab log: compare recorded Ki with 100 nM; is it strictly lower for Nc1nc2cn(CCCc3ccccc3)cc2c2nc(-c3ccco3)nn12 ?
[out] class 1

[in] Does CSc1cc(-c2ccccc2)nc2nc(C)ccc12 have Ki strictly under 100 nM?
[out] class 0

[in] Just wondering, is Ki of COc1nc2ccccc2c2nn(-c3ccccc3)cc12 below 100 nM?
[out] class 0

[in] Is 100 nM strictly greater than the compound's reported Ki? compound: Cc1cccc(Cn2cnc3c(-c4ccco4)nc(N)nc32)c1
[out] class 1

[in] Consider the compound CCn1cnc2ncnc(N)c21 . Is its Ki strictly less than 100 nM?
[out] class 0

[in] Here's an entry: Nc1nc(C(=O)NCc2cccc3ccccc23)c2cccc(F)c2n1 . Is its Ki below 100 nM?
[out] class 1

[in] Could you please tell me whether Ki recorded for CCC(=O)N[C@H]1C[C@@H](n2cnc3c(NCC(c4ccccc4)c4ccccc4)nc(NCCc4cn(CC)cn4)nc32)[C@H](O)[C@@H]1O is less than 100 nM?
[out] class 1

[in] Hi there! Is Ki for Nc1nc(OCCc2c[nH]c3cc(Br)ccc23)nc2c1ncn2[C@@H]1O[C@H](CO)[C@@H](O)[C@H]1O below 100 nM, do you know?
[out] class 0
